Biological target: CA II (Homo sapiens)
Assay: CA II inhibition
Format: biochemical
Conditions: read-out: IC(50), CA II inhibition
Categorize each record by its IC50 using bottom (below 300 nM), middle (300 nM to below 600 nM), top (600 nM or more)

Previously resolved entries follow.
*Q* Could you tell me which band NS(=O)(=O)c1nn2cc(-c3ccc(O)c(O)c3)nc2s1 [Compound 22] belongs to?
*A* bottom

*Q* Could you tell me which band NS(=O)(=O)c1nn2cc(-c3ccc(Oc4ccccc4)cc3)nc2s1 [Compound 87] belongs to?
*A* bottom

*Q* Could you tell me which band NS(=O)(=O)c1nn2cc(-c3cc4ccccc4o3)nc2s1 [Compound 111] belongs to?
*A* top

*Q* Could you tell me which band Cc1ccc(-c2cn3nc(S(N)(=O)=O)sc3n2)cc1 [Compound 47] belongs to?
*A* middle

*Q* Could you tell me which band NS(=O)(=O)c1nn2cc(-c3ccccn3)nc2s1 [Compound 105] belongs to?
*A* bottom

*Q* Could you tell me which band NS(=O)(=O)c1nn2cc(-c3ccc4c(c3)OCO4)nc2s1 [Compound 20] belongs to?
*A* middle

*Q* Could you tell me which band CC(C)(C)c1cc(-c2cn3nc(S(N)(=O)=O)sc3n2)c2c(c1)C(C)(C)CC2 [Compound 50] belongs to?
*A* top

*Q* Could you tell me which band COc1ccc(-c2cn3nc(S(N)(=O)=O)sc3n2)c(OC)c1 [Compound 19] belongs to?
*A* middle

Could you now look at the following compound, please?
*Q* Could you tell me which band NS(=O)(=O)c1nn2cc(-c3ccc(F)c(F)c3)nc2s1 [Compound 5] belongs to?
*A* bottom
